Recorded measurements of inhibition, one per entry
system: Dengue virus; experiment: Inhibition of Dengue virus NS2B-NS3 serine protease expressed in Escherichia coli BL 21 (DE3) at 50 uM preincubated for 15 mins before substrate addition measured after 15 mins by fluorimetric analysis
Your answer is read as %, so omit the unit and give the number.

Sample answers from the record:
Request: Report inhibition, nothing else, for this compound: CC(C)(C)NC(=O)C(=O)/C=C/c1ccccc1
Result: 26.3

Request: Report inhibition, nothing else, for this compound: CC(C)(C)NC(=O)C(=O)/C=C/c1ccc(Cl)cc1
Result: 15.9

Request: Report inhibition, nothing else, for this compound: CC(C)(C)NC(=O)C(=O)/C=C/c1cccs1
Result: 27.6

Request: Report inhibition, nothing else, for this compound: CC(C)(C)NC(=O)C(=O)/C=C/c1ccc(C#N)cc1
Result: 13.5

Request: Report inhibition, nothing else, for this compound: CC(=O)n1cc(/C=C/C(=O)C(=O)NC(C)(C)C)c2ccccc21
Result: 29.8

Lab note: next compound to report on.
Request: Report inhibition, nothing else, for this compound: CC(C)(C)NC(=O)C(O)/C=C/c1ccccc1 (configuration not stated)
Result: 8.2
